Data origin, for the record: ChEMBL document CHEMBL3885861

species: Rattus norvegicus; assay: Open TG-GATES - Regimen: Daily Repeat; type: toxicity, organism-based, Sprague-Dawley; design: regimen Daily Repeat, gender Male, age 6 weeks; details: in vivo, po, 0 mg/kg, 72 h, tissue Plasma, route gavage, dose level Control, time 3 day
API: label(entry) gives true if the entry's LDH is strictly smaller than 200 IU/L; on equality or larger values it gives false.

Just wondering, is LDH of `C=CCO` below 200 IU/L?
false

Just wondering, is LDH of `Cn1c(=O)c2c(ncn2C)n(C)c1=O` below 200 IU/L?
true

Just wondering, is LDH of `Cc1cccc(Nc2cc(Cl)nc(SCC(=O)O)n2)c1C` below 200 IU/L?
true

Just wondering, is LDH of COc1ccc(O)c(C(C)(C)C)c1.COc1ccc(O)cc1C(C)(C)C [BUTYLATED HYDROXYANISOLE] below 200 IU/L?
true

Just wondering, is LDH of `O=C1NC(=O)C(c2ccccc2)(c2ccccc2)N1` below 200 IU/L?
true

---

species on record: Rattus norvegicus; assay: Open TG-GATES - Regimen: Single; assay type: toxicity, organism-based, Sprague-Dawley; design: regimen Single, gender Male, age 6 weeks; conditions: in vivo, po, 0 mg/kg, 9 h, tissue Blood, route gavage, dose level Control
PROPERTY_LABEL: Bas (%)
Quick reminder: number only, in %, skip the unit.

I have this compound here, O=P1(N(CCCl)CCCl)NCCCO1 (stereo not drawn) [CYCLOPHOSPHAMIDE ANHYDROUS] , and I need its recorded Bas.
0

I have this compound here, `Cc1cnc(NC(=O)C2=C(O)c3ccccc3S(=O)(=O)N2C)s1` , and I need its recorded Bas.
0.2

I have this compound here, `Cc1cccc(Nc2cc(Cl)nc(SCC(=O)O)n2)c1C` , and I need its recorded Bas.
0

I have this compound here, S=C=Nc1cccc2ccccc12 [1-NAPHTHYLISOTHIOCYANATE] , and I need its recorded Bas.
0.2

I have this compound here, CS(=O)(=O)Nc1ccc([N+](=O)[O-])cc1Oc1ccccc1 [NIMESULIDE] , and I need its recorded Bas.
0

I have this compound here, `O=C1CN(/N=C/c2ccc(-c3ccc([N+](=O)[O-])cc3)o2)C(O)=N1` , and I need its recorded Bas.
0

I have this compound here, `C=CCO` , and I need its recorded Bas.
0

I have this compound here, `O=C1NC(=O)C(c2ccccc2)(c2ccccc2)N1` , and I need its recorded Bas.
0.6

---

species on record: Rattus norvegicus; experiment: Open TG-GATES - Regimen: Daily Repeat; format: toxicity, organism-based, Sprague-Dawley; parameters: regimen Daily Repeat, gender Male, age 6 weeks; conditions: in vivo, po, 0 mg/kg, […], tissue Plasma, route gavage, dose level Control, time 14 day
Give Cl for every item shown.
Include the unit right after the number.

I have this compound here, O=P1(N(CCCl)CCCl)NCCCO1 (centres undefined) [CYCLOPHOSPHAMIDE ANHYDROUS] , and I need its recorded Cl.
107 meq/L

I have this compound here, CS(=O)(=O)Nc1ccc([N+](=O)[O-])cc1Oc1ccccc1 [NIMESULIDE] , and I need its recorded Cl.
106.4 meq/L

I have this compound here, `Cc1cccc(Nc2cc(Cl)nc(SCC(=O)O)n2)c1C` , and I need its recorded Cl.
105.2 meq/L

I have this compound here, `O=C1CN(/N=C/c2ccc(-c3ccc([N+](=O)[O-])cc3)o2)C(O)=N1` , and I need its recorded Cl.
105.4 meq/L

I have this compound here, `Cn1c(=O)c2c(ncn2C)n(C)c1=O` , and I need its recorded Cl.
104.6 meq/L

I have this compound here, `C=CCO` , and I need its recorded Cl.
101.4 meq/L

I have this compound here, `Cn1cnc([N+](=O)[O-])c1Sc1ncnc2nc[nH]c12` , and I need its recorded Cl.
107 meq/L

I have this compound here, COc1ccc(O)c(C(C)(C)C)c1.COc1ccc(O)cc1C(C)(C)C [BUTYLATED HYDROXYANISOLE] , and I need its recorded Cl.
105.8 meq/L

I have this compound here, COc1ccc(Cl)cc1C(=O)NCCc1ccc(S(=O)(=O)NC(=O)NC2CCCCC2)cc1 [GLYBURIDE] , and I need its recorded Cl.
102.6 meq/L

---

organism: Rattus norvegicus; assay: Open TG-GATES - Regimen: Single; format: toxicity, organism-based, Sprague-Dawley; design: regimen Single, gender Male, age 6 weeks; conditions: in vivo, po, 0 mg/kg, 6 h, tissue Kidney, route gavage, dose level Control
PROPERTY_LABEL: KIDNEY_L (g)
Quick reminder: number only, in g, skip the unit.

I have this molecule here, O=C1NC(=O)C(c2ccccc2)(c2ccccc2)N1 [PHENYTOIN] , and I need its recorded KIDNEY_L.
0.9

I have this molecule here, COc1ccc(O)c(C(C)(C)C)c1.COc1ccc(O)cc1C(C)(C)C [BUTYLATED HYDROXYANISOLE] , and I need its recorded KIDNEY_L.
0.9

I have this molecule here, Cn1cnc([N+](=O)[O-])c1Sc1ncnc2nc[nH]c12 [AZATHIOPRINE] , and I need its recorded KIDNEY_L.
0.9

I have this molecule here, Cc1cnc(NC(=O)C2=C(O)c3ccccc3S(=O)(=O)N2C)s1 [MELOXICAM] , and I need its recorded KIDNEY_L.
1

I have this molecule here, Cc1cccc(Nc2cc(Cl)nc(SCC(=O)O)n2)c1C [PIRINIXIC ACID] , and I need its recorded KIDNEY_L.
0.8

I have this molecule here, CNCCC(Oc1ccc(C(F)(F)F)cc1)c1ccccc1.Cl (stereo unspecified) [FLUOXETINE HYDROCHLORIDE] , and I need its recorded KIDNEY_L.
1

---

species: Rattus norvegicus; assay: Open TG-GATES - Regimen: Daily Repeat; type: toxicity, organism-based, Sprague-Dawley; design: regimen Daily Repeat, gender Male, age 6 weeks; details: in vivo, po, 0 mg/kg, […], tissue Plasma, route gavage, dose level Control, time 28 day
Threshold check on TG: at or above 100 mg/dL gives Condition met, strictly below gives Condition not met.

Quick check: does `Cn1cnc([N+](=O)[O-])c1Sc1ncnc2nc[nH]c12` have TG greater than or equal to 100 mg/dL?
Condition met

Quick check: does `Cn1c(=O)c2c(ncn2C)n(C)c1=O` have TG greater than or equal to 100 mg/dL?
Condition met

Quick check: does O=P1(N(CCCl)CCCl)NCCCO1 (stereo not given) [CYCLOPHOSPHAMIDE ANHYDROUS] have TG greater than or equal to 100 mg/dL?
Condition met

Quick check: does `O=C1NC(=O)C(c2ccccc2)(c2ccccc2)N1` have TG greater than or equal to 100 mg/dL?
Condition met

Quick check: does `Cc1cccc(Nc2cc(Cl)nc(SCC(=O)O)n2)c1C` have TG greater than or equal to 100 mg/dL?
Condition not met

---

species: Rattus norvegicus; assay: Open TG-GATES - Regimen: Daily Repeat; assay type: toxicity, organism-based, Sprague-Dawley; parameters: regimen Daily Repeat, gender Male, age 6 weeks; settings: in vivo, po, 0 mg/kg, 72 h, tissue Blood, route gavage, dose level Control, time 3 day
PROPERTY_LABEL: Hb (g/dL)
Quick reminder: number only, in g/dL, skip the unit.

I have this compound here, `O=C1CN(/N=C/c2ccc(-c3ccc([N+](=O)[O-])cc3)o2)C(O)=N1` , and I need its recorded Hb.
13.3

I have this compound here, COc1ccc(O)c(C(C)(C)C)c1.COc1ccc(O)cc1C(C)(C)C [BUTYLATED HYDROXYANISOLE] , and I need its recorded Hb.
12.9

I have this compound here, `O=C1NC(=O)C(c2ccccc2)(c2ccccc2)N1` , and I need its recorded Hb.
13.3

I have this compound here, `C=CCO` , and I need its recorded Hb.
13.4

I have this compound here, CS(=O)(=O)Nc1ccc([N+](=O)[O-])cc1Oc1ccccc1 [NIMESULIDE] , and I need its recorded Hb.
13.5

I have this compound here, COc1ccc(Cl)cc1C(=O)NCCc1ccc(S(=O)(=O)NC(=O)NC2CCCCC2)cc1 [GLYBURIDE] , and I need its recorded Hb.
13.3

I have this compound here, O=P1(N(CCCl)CCCl)NCCCO1 (stereo not drawn) [CYCLOPHOSPHAMIDE ANHYDROUS] , and I need its recorded Hb.
13.3

I have this compound here, `Cn1cnc([N+](=O)[O-])c1Sc1ncnc2nc[nH]c12` , and I need its recorded Hb.
13.5

---

Give TP for every item shown.
organism: Rattus norvegicus; assay: Open TG-GATES - Regimen: Single; assay type: toxicity, organism-based, Sprague-Dawley; set-up: regimen Single, gender Male, age 6 weeks; conditions: in vivo, po, 0 mg/kg, 6 h, tissue Plasma, route gavage, dose level Control
Quick reminder: number only, in g/dL, skip the unit.

I have this compound here, COc1ccc(O)c(C(C)(C)C)c1.COc1ccc(O)cc1C(C)(C)C [BUTYLATED HYDROXYANISOLE] , and I need its recorded TP.
5.7

I have this compound here, Cc1cnc(NC(=O)C2=C(O)c3ccccc3S(=O)(=O)N2C)s1 [MELOXICAM] , and I need its recorded TP.
5.4

I have this compound here, CS(=O)(=O)Nc1ccc([N+](=O)[O-])cc1Oc1ccccc1 [NIMESULIDE] , and I need its recorded TP.
5.2

I have this compound here, CNCCC(Oc1ccc(C(F)(F)F)cc1)c1ccccc1.Cl (stereo unspecified) [FLUOXETINE HYDROCHLORIDE] , and I need its recorded TP.
5.3

I have this compound here, S=C=Nc1cccc2ccccc12 [1-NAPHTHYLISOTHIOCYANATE] , and I need its recorded TP.
5.4

I have this compound here, Cn1cnc([N+](=O)[O-])c1Sc1ncnc2nc[nH]c12 [AZATHIOPRINE] , and I need its recorded TP.
5.5

I have this compound here, O=C1NC(=O)C(c2ccccc2)(c2ccccc2)N1 [PHENYTOIN] , and I need its recorded TP.
5.4

I have this compound here, Cc1cccc(Nc2cc(Cl)nc(SCC(=O)O)n2)c1C [PIRINIXIC ACID] , and I need its recorded TP.
5.4

I have this compound here, O=C1CN(/N=C/c2ccc(-c3ccc([N+](=O)[O-])cc3)o2)C(O)=N1 [DANTROLENE] , and I need its recorded TP.
5.3

I have this compound here, C=CCO [ALLYL ALCOHOL] , and I need its recorded TP.
5.5

I have this compound here, COc1ccc(Cl)cc1C(=O)NCCc1ccc(S(=O)(=O)NC(=O)NC2CCCCC2)cc1 [GLYBURIDE] , and I need its recorded TP.
5.6
